Where do the numbers come from? From PubChem BioAssay (NCI).

- Tested on: SK-MEL-2 melanoma
- assay.comment: NCI-60 one-dose screen, 48 h
- measurement.conditions: 10 µM unless noted
Compounds without any hit were thinned out: in the full panel of roughly 83,000, 20% have a hit. Calls of active or inactive are those of the source. The calls were made as follows: active = growth percent below 10; inactive = the rest.
Tick one outcome: label 1 = active, label 0 = inactive

In [3]: df
Out[3]:
                            molecule_smiles  class_name
0               CCOc1ccc2nc3ccc(Cl)cc3nc2c1     label 0
1  C[C@@H](c1ccc2c(c1)[nH]c1ccc(Cl)cc12)c1nc2ccc(Cl)cc2[nH]1     label 0
2  Cc1ncc(C(=O)Nc2ccc(CN3CCN(C)CC3)c(C(F)(F)F)c2)cc1C#Cc1c(N)ncc2ccccc12     label 1

Query: GET /call?item= Oc1ccc(CN(Cc2ccc(C(F)(F)F)cc2)Cc2ccc(O)c3ncccc23)c2cccnc12 returns the recorded outcome of this test.
Result: label 0

Query: Give the logged outcome of this assay for the following compound: Cc1ccc(C(C)C)c(OCc2ccc(C(=O)N/N=C/c3cccc(O)c3O)cc2)c1
Result: label 0
